Reference source for all entries: paper PMC3994577

# test: Early RBV plasma exposure (AUC0-4h) after a 600 mg first dose of RBV
# Assay type: in vivo, human (patients with chronic hepatitis C)
# conditions.used: human, plasma, oral, 600 mg, RBV-AUC 0-4h (median), HIV-HCV coinfected patients; abstract
# Protocol: Patients were divided into two groups according to their HIV status. […] All patients gave their informed consent before they entered the study. The plasma AUC was determined for each patient before the antiviral treatment or at the first day. Results of AUC and normalized AUC were analyzed according to the two groups defined by the HIV status. All quantitative variables were expressed as median and range. Comparisons of data were made using the non-parametric Mann–Whitney test. […]
parameter: AUC(0-t) (ng·h/mL)

compound | reported
NC(=O)c1ncn([C@@H]2O[C@H](CO)[C@@H](O)[C@H]2O)n1 [RBV, ribavirin] | 1470
